experiment: yeast display, Sf9 membrane polyspecificity reagent, FACS + sequencing; frameworks hold sequencing errors
assay.metric: polyreactivity (PSR sort gate)

>>> recorded_value("QVQLVESGGGLVQEGGSLRLSCAASGSTFSFYAMGWYRQAPGKERELVAAIDSGGRTKYADSVKGRFTISRDNAKNTVYLQMNSLKPEDSEVYYCGAVFRGWWLYDYWGKGTQVTVSS")
"low polyreactivity"
>>> recorded_value("QVQLVESVGGLGQAGGSLRLSCAASGSIFVLNARGWSRQAPGKERELVAGITYSGGSTYYADSVKGRFTISRDNATNTVYLQMNSLKPEDTAVYSCAAPVRRYPYPGRFYYWGQGTQVTVSS")
"low polyreactivity"
>>> recorded_value("QVQLVESGGGLVQAGGSLRLSCAASGITFYWYAMGWYRQAPGKERELVARISSTGGSTYYADSVKGRFTISRDNAKNTVYLQLNSLKPEDTAVYYCNAVGRLYLYGSWGQGTQVTLSS")
"high polyreactivity"
>>> recorded_value("QVQLVESGGGLVQAGGSLRLSCAASGSIFSRYAMGWYRQAPGKERELVAAISWRGGSTYYADSVKGRFTISRDNAKNTVYLQMTSLKPEDTAVYYCAAVYRGGPYYYWGQGTQVTVSS")
"high polyreactivity"
>>> recorded_value("QVQLVESGGGLVQAGGSLRLTCAASGFIFWANAMGWYRPAPGKERELVAAIRYSGGRTYYADSVKGRYTISRDNAKNTVFLQKNSLKPEDTAVYYCAKEYKKYGGFVVENDYWGQGTQVNVSS")
"low polyreactivity"
>>> recorded_value("QVQLVESGGGLVQAGGSLRLSCAASGRIFYGYAMGWYRQAPGKERELVAAITSGSRTNYADSVKGRFTISRDNAKNTVYLQMNSLKPEDTAVYDCHSRYGSYLYSLVHNTRYDYWGQGTQVTVSS")
"low polyreactivity"
>>> recorded_value("QVQLVESGGGLVQAGGSLRLSCAASGFIFPKNAMGWYRQAPGKERELVAAISRSSGNTYYADSVKGRFTISRDNAKNTVYLQMNSLKPEDTAVYYCAASYWPYRGPVGGSKMYYWGQGTQVTVSS")
"high polyreactivity"
>>> recorded_value("QVQLVESVVGLVQAGGSLRLSCAASGRIFYRYAMGWYRQAPGKERELVASITRSGITHYADSVKGRFTISRDNAKNTVYLQMNSLKPEDTAVYYCYARRGSPAPYDYWGQGTQVTVSS")
"high polyreactivity"

----------
assay: yeast display, Sf9 membrane polyspecificity reagent, FACS + sequencing; frameworks hold sequencing errors
assay.metric: polyreactivity (PSR sort gate)

>>> recorded_value("QVQLVESGGGLVQAGGSLRLSCAASGGTFYIYVMGWYRQAPGKERELVAAITSGDSTNYADSVKGRFTISRDNAKNTVYLQMNSLKPEDTAVYYCATGYWELRYDYWGQGTQVTVSS")
"low polyreactivity"
>>> recorded_value("QVQLVESGGGLVQAGGSLRLSCAASGGTFFQYAMGWYRQAPGKERELVAAITWSSGSTYYADSVKGRFTISRDNAKNTVYLQMNSLKPEDTAVYYDDYYTYGDYWGQGTQVTVSS")
"low polyreactivity"

----------
experiment: yeast display, Sf9 membrane polyspecificity reagent, FACS + sequencing; frameworks hold sequencing errors
assay.metric: polyreactivity (PSR sort gate)

>>> recorded_value("QVQLVESGGGLVQAGGSLRLSCAASGLIFVFNTLGWYRQAPGKEMELVAVITSGGSTNYADSVKGRFTISSDNEKNTVYLQMISLKPEDTAVYYCNVDRQVITGRYIGDYWGEGTQVTVSS")
"low polyreactivity"
>>> recorded_value("QVQLVESAGGLVQEGGSLSLSCAASGITLTIYVMGWYRQAPGKEREMVAAISTSGGSTYYADSVKGRFTISRDNAKNTVYLQMNSLKQEDTAVYYCNATPLRRYYGRYLMDYWGQGTQVTVSS")
"high polyreactivity"
>>> recorded_value("QVQLVESGGGLVQAGGSLRLSCAASGYTFTLYAMGWYRQAPGKEREFVAAISIGGDSTYYADSVKGRFTISRDNAKNTVYLQMNSLKPEDTAVYYCAADTYQRWILLIGELQVETSYDYWGQGTQVTVSS")
"low polyreactivity"
>>> recorded_value("QVQLVESGGGLVQAGGSLRLSCAASGFISDDYAMGWYRQAPGKERELVAAISDSGVDTYYADSVKGRFTISRDNAKNTVYLQMNSLKPEDTAVYYCNKRYVIRRRGYDYWGQGTQVTVSS")
"low polyreactivity"
>>> recorded_value("QVHLVESGGGLVQARGTRRLSCAASGYTFPRYTMGWYRQAPGKERELVAAISGSSGSTYYADSVTGRFTISRDNATNTVYLQLNSLKPEDTAVYYCNKYYGFHKIKEYDYWGQGTQGTVSS")
"high polyreactivity"
>>> recorded_value("QVQLVESGGGLVQAGGSLRLSCAASGLTYANAKGWYRQAPGKERELVATIRYSGGSTYYADSVKGRFTISRDNAKNTVYLQMNSLKPEDTAVYYCAARRTAGYRSGEYDYWGQGTQVTVSS")
"high polyreactivity"
>>> recorded_value("QVQLVESGGGLVQAGGSLRLSCAASGSILSRYAMGWYRQAPGKERELVATITRRGGSTFYADSVKGRFTISRDNAKNTVYLQMNSLKPEDTAVYYCAVGRLFWGQGTQVTVSS")
"low polyreactivity"
>>> recorded_value("QVQLVESGGGLVQAGGSLRLSCAASGFTFWWYTMGWYRPAPGKERELVAAITSGGSTYYADSVKGRFTISRDNAKNTVYLQMNSLKPEDTAVYYCNVVPYLYGLDGYDYWGQGTQVTVSS")
"high polyreactivity"
>>> recorded_value("QVQLVESGGGLVEAGGSLRLRCAASGISYRYYAMGWYRQAPGKERELVAAITYRGGTTYYADSVKGRFKISRDKEKNTVYLQMNSLKPEDTAVYYCATDVNSYGYYYWGQGTQVTVSS")
"high polyreactivity"
>>> recorded_value("QVQLVESGGGLVQAGGSLRLSCAASGRIFNRNAMGWYRQAPGKERELVAAISSDTSTNYADSVKGRFTISRDNAKNTVYLQMNSLKPEDTAVYYCAADVRRYDGYDYWGQGTQVTVSS")
"low polyreactivity"
>>> recorded_value("QVQLVESGGGLVQAGGSLRLSCAASGSIFIPNAMGWYRQAPGTERELVAAISLSDTTTYYADSVKGRFTISRDNAKNTVYLQMNSLKPEDTAVYYCAADYWFYPTSPDMDYWGQGTQVTVSS")
"low polyreactivity"
>>> recorded_value("QVQLVESGGGLVQAGGSLRLSCAASGSTFFRNAMGWYRQAPGKERELVASITSGGNTKYADSVKGRFTISRDNAKNTVYLQMNSLKPEDTAVYYCAALFYHFARYSRLYNYWGQGTQVTVSS")
"low polyreactivity"
